assayed system: Retinaldehyde dehydrogenase 3 (Homo sapiens) (UniProt P47895)
assay remarks: qHTS for Inhibitors of the Aldehyde Dehydrogenase Family (ALDH1A3) Validation screen (AID 2061312); note: nearly all actives have a fitted effect of over 45% in size; note: potency is the fitted concentration of half-maximal effect
condition summary: ALDH1A3 enzyme inhibition qHTS validation, fluorescence; series mostly up to 84.7 µM
Records with an inconclusive call do not appear. Calls of active or inactive are those of the source. Calls come from the whole dose curve; as a rule, active = well fitted inhibition curve with a large enough effect; inconclusive = small, poorly fitted or top-dose-only effect; inactive = no such curve, though single readings can be large or run the other way.
property name: Potency

Completed entries (count: 5):
{"columns": ["molecule", "Potency"],
 "data": [
  ["COc1ccccc1OCCNCC(O)CCOc1cccc2[nH]c3ccccc3c12 (centres undefined)", "inactive"],
  ["NC(=O)c1nc(Nc2ccccc2)sc1NC(=O)C1CCCCC1", "inactive"],
  ["COc1ccc2cc1Oc1ccc(cc1)C[C@H]1c3c(cc4c(c3Oc3cc5c(cc3OC)CCN(C)[C@@H]5C2)OCO4)CCN1C", "inactive"],
  ["CCN(CC)CCN(Cc1ccc(-c2ccc(C(F)(F)F)cc2)cc1)C(=O)Cn1c(SCc2ccc(F)cc2)nc(=O)c2c1CCC2", "inactive"],
  ["CC(C)(C)c1ccc(CN2CCN(C(c3ccccc3)c3ccc(Cl)cc3)CC2)cc1 (centres undefined)", "31.6 µM (active)"]
]}

Field request: Potency | item: "CCS(=O)(=O)N(Cc1cccnc1)c1cccc(-c2ccc(C#N)cc2)c1"
6.31 µM (active)

Field request: Potency | item: "C=C[C@H]1CN2CC[C@H]1C[C@H]2[C@H](O)c1ccnc2ccc(OC)cc12"
inactive

Field request: Potency | item: "CC(=O)N1CCN([C@H]2CCN(C(=O)N(C)[C@H](C)c3cc(C(F)(F)F)cc(C(F)(F)F)c3)[C@@H](c3ccc(F)cc3C)C2)CC1"
inactive

Field request: Potency | item: CC(NC(=O)Cc1cc(F)cc(F)c1)C(=O)NC1C(=O)N(C)c2ccccc2-c2ccccc21 (centres undefined)
inactive
